Tested on: 3T3-L1
Assay: Induction of mitochondrial fusion in mouse 3T3L1 cells at 10 to 50 uM after 48 hrs by green Fm-staining
Format: functional, cell-based
Calls of active or inactive are those of the source. The rule behind the calls is not given here.
Just give me one of these, please: t = active, f = inactive

OCC(CO)OCC(COC(CO)CO)n1cc(COc2cc(O)cc(/C=C/c3ccc4c(c3)OCO4)c2)nn1 : t
Oc1cc(O)cc(/C=C/c2ccc(O)c(O)c2)c1 : t
OCC(CO)OCC(COC(CO)CO)n1cc(COc2cc(O)cc(/C=C/c3ccc(O)c(O)c3)c2)nn1 : t

# fetch the recorded call for COc1ccc(/C=C/c2cc(O)cc(OCc3cn(C(COC(CO)CO)COC(CO)CO)nn3)c2)cc1 here
f

Lookup OCC(CO)OCC(COC(CO)CO)n1cc(COc2cc(O)cc(/C=C/c3ccc(O)cc3)c2)nn1
f
